meta.source: ChEMBL document CHEMBL1765074

Exercise: state measured pIC50 for each of the molecules provided.
# Test system: MCF7
# Assay text: Antiproliferative activity against human MCF7 cells by MTT assay
# Assay type: functional, cell-based
One number for each entry, as −log10 of the molar value.

Guide cases for pIC50, answers given:
> print(dat)
                                   molecule  meas.value
1  COc1ccc([C@@H]2C(c3ccsc3)C(=O)N2c2cc(OC)c(OC)c(OC)c2)cc1 (mixture of isomers)        7.22
2  COc1ccc([C@@H]2C(c3ccc4ccccc4c3)C(=O)N2c2cc(OC)c(OC)c(OC)c2)cc1 (mixture of isomers)        5.60
3  COc1ccc([C@@H]2[C@@H](c3cccs3)C(=O)N2c2cc(OC)c(OC)c(OC)c2)cc1O        8.15

Now, please, on to the next molecule.
Requested field: pIC50. Item: COc1ccc([C@@H]2C(c3cccc4ccccc34)C(=O)N2c2cc(OC)c(OC)c(OC)c2)cc1 (mixture of isomers)
4.95

###

# Assay text: Cytotoxicity against CD-1 mouse mammary epithelial cells seeded at 50000 cells/ml assessed as viable cells at IC50 after 72 hrs by alamar blue assay
# Type: cell-based, Epithelial cell
# Run parameters: read-out: Activity
Property name: viability at 72 h

Which viability at 72 h is listed for "COc1ccc([C@@H]2[C@@H](c3cccs3)C(=O)N2c2cc(OC)c(OC)c(OC)c2)cc1O" ?
90.6%

###

# Assay text: Cytotoxicity against CD-1 mouse mammary epithelial cells seeded at 50000 cells/ml assessed as viable cells at 10 uM after 72 hrs by alamar blue assay
# Format: cell-based, Epithelial cell
# Run parameters: read-out: Activity
Property name: viability at 72 h, 10 µM (%)
One number for each entry, in %.

// viability at 72 h, 10 µM lookup, key: "COc1ccc([C@@H]2[C@@H](c3cccs3)C(=O)N2c2cc(OC)c(OC)c(OC)c2)cc1O"
74.8

###

# Tested on: MCF7
# Assay text: Antiproliferative activity against human MCF7 cells by MTT assay
# Assay type: functional, cell-based
Give measured log10 IC50 for each item. Keep answers brief.
Please be aware that the numbers have been log10-transformed from IC50 in µM.

> print(dat)
                                   compound  meas.value
1  COc1ccc([C@@H]2[C@@H](C(O)c3ccsc3)C(=O)N2c2cc(OC)c(OC)c(OC)c2)cc1 (mixture of isomers)        0.00
2  COc1ccc([C@@H]2C(Cc3cccs3)C(=O)N2c2cc(OC)c(OC)c(OC)c2)cc1 (mixture of isomers)        0.21
3  COc1cc(N2C(=O)[C@H](c3cccs3)[C@H]2c2ccc3ccccc3c2)cc(OC)c1OC (mixture of isomers)       -0.92
4  COc1cc(N2C(=O)[C@H](c3cccs3)[C@H]2c2cccc3ccccc23)cc(OC)c1OC (racemic)       -0.21

Hey, quick one: what's log10 IC50 for each of these?
1. COc1ccc([C@@H]2C(c3ccc(C)s3)C(=O)N2c2cc(OC)c(OC)c(OC)c2)cc1 (mixture of isomers)
2. COc1ccc([C@@H]2C(c3ccoc3)C(=O)N2c2cc(OC)c(OC)c(OC)c2)cc1 (mixture of isomers)
3. COc1ccc([C@@H]2C(C3CCCCC3)C(=O)N2c2cc(OC)c(OC)c(OC)c2)cc1 (mixture of isomers)

1: -0.60; 2: -0.82; 3: -0.24
